PROTOCOL DETAILS: Cytotoxicity against mouse BV-2 cells assessed as cell viability at 10 uM by MTT assay relative to control
Assay type: toxicity, cell-based
EXPERIMENTAL CONDITIONS: read-out: Activity
ATTRIBUTE MEASURED: viability at 10 µM (%)
Provide the reading as a plain figure in %.

Answer with reported viability at 10 µM of COc1c2n(cc(C(=O)Nc3ccccc3-c3cn(-c4ccccc4Cl)nn3)c1=O)C[C@@H]1OCC[C@@H](C)N1C2=O
98.3

Answer with reported viability at 10 µM of COc1c2n(cc(C(=O)Nc3ccc(-c4cn(-c5ccccc5Cl)nn4)cc3)c1=O)C[C@@H]1OCC[C@@H](C)N1C2=O
102

Answer with reported viability at 10 µM of COc1c2n(cc(C(=O)Nc3ccc(-c4cn(-c5ccccc5I)nn4)cc3)c1=O)C[C@@H]1OCC[C@@H](C)N1C2=O
98.2

---

Entries annotated with measured level, % of control at 1 µM
Test system: BV-2
PROTOCOL DETAILS: Antiinflammatory activity in LPS induced mouse BV-2 cells assessed as NO production at 1 uM by Griess reagent based assay relative to control
Provide the reading as a plain figure in %.

Worked examples follow.
COc1c2n(cc(C(=O)Nc3ccc(-c4cn(-c5ccccc5)nn4)cc3)c1=O)C[C@@H]1OCC[C@@H](C)N1C2=O 88.8
COc1c2n(cc(C(=O)Nc3ccc(-c4cn(-c5ccccc5F)nn4)cc3)c1=O)C[C@@H]1OCC[C@@H](C)N1C2=O 98.5
COc1c2n(cc(C(=O)Nc3ccc(-c4cn(-c5cccc(C(F)(F)F)c5)nn4)cc3)c1=O)C[C@@H]1OCC[C@@H](C)N1C2=O 96.8

Moving on to another compound below.
Answer with reported level, % of control at 1 µM of COc1c2n(cc(C(=O)Nc3cccc(-c4cn(-c5ccccc5)nn4)c3)c1=O)C[C@@H]1OCC[C@@H](C)N1C2=O
78.6

---

Tested on: BV-2
PROTOCOL DETAILS: Antiinflammatory activity in LPS induced mouse BV-2 cells assessed as inhibition of NO production by Griess reagent based assay
Type: functional, cell-based
ATTRIBUTE MEASURED: IC50 (µM)
Provide the reading as a plain figure in µM.

Worked examples follow.
COc1ccccc1-n1cc(-c2cccc(NC(=O)c3cn4c(c(OC)c3=O)C(=O)N3[C@H](C)CCO[C@H]3C4)c2)nn1 11
COc1c2n(cc(C(=O)Nc3cccc(-c4cn(-c5c(C)cc(C)cc5C)nn4)c3)c1=O)C[C@@H]1OCC[C@@H](C)N1C2=O 9.68
COc1c2n(cc(C(=O)Nc3cccc(-c4cn(-c5ccccc5Cl)nn4)c3)c1=O)C[C@@H]1OCC[C@@H](C)N1C2=O 4.45

Moving on to another compound below.
Answer with reported IC50 of COc1c2n(cc(C(=O)Nc3cccc(-c4cn(-c5ccccc5I)nn4)c3)c1=O)C[C@@H]1OCC[C@@H](C)N1C2=O
5.03

---

Entries annotated with measured viability at 1 µM
PROTOCOL DETAILS: Cytotoxicity against mouse BV-2 cells assessed as cell viability at 1 uM by MTT assay relative to control
Assay type: toxicity, cell-based
EXPERIMENTAL CONDITIONS: read-out: Activity
Provide the reading as a plain figure in %.

Worked examples follow.
COc1c2n(cc(C(=O)Nc3cccc(-c4cn(-c5ccccc5I)nn4)c3)c1=O)C[C@@H]1OCC[C@@H](C)N1C2=O 96.4
COc1c2n(cc(C(=O)Nc3ccccc3-c3cn(-c4ccccc4Cl)nn3)c1=O)C[C@@H]1OCC[C@@H](C)N1C2=O 97.9
COc1c2n(cc(C(=O)Nc3ccccc3-c3cn(-c4cc(C(F)(F)F)cc(C(F)(F)F)c4)nn3)c1=O)C[C@@H]1OCC[C@@H](C)N1C2=O 104

Answer with reported viability at 1 µM of COc1c2n(cc(C(=O)Nc3ccc(-c4cn(-c5ccccc5C(F)(F)F)nn4)cc3)c1=O)C[C@@H]1OCC[C@@H](C)N1C2=O
103

---

PROTOCOL DETAILS: Cytotoxicity against mouse BV-2 cells assessed as cell viability at 1 uM by MTT assay relative to control
Type: toxicity, cell-based
EXPERIMENTAL CONDITIONS: read-out: Activity
Entries annotated with measured viability at 1 µM
Provide the reading as a plain figure in %.

Answer with reported viability at 1 µM of COc1c2n(cc(C(=O)Nc3ccc(-c4cn(-c5ccccc5)nn4)cc3)c1=O)C[C@@H]1OCC[C@@H](C)N1C2=O
104

Answer with reported viability at 1 µM of COc1c2n(cc(C(=O)Nc3ccc(-c4cn(-c5cccc(C(F)(F)F)c5)nn4)cc3)c1=O)C[C@@H]1OCC[C@@H](C)N1C2=O
105

---

PROTOCOL DETAILS: Cytotoxicity against mouse BV-2 cells assessed as cell viability at 10 uM by MTT assay relative to control
Type: toxicity, cell-based
EXPERIMENTAL CONDITIONS: read-out: Activity
Threshold 70%. viability at 10 µM below it: met. viability at 10 µM at it or above: not met.

Before answering, review these 4 worked examples.
COc1ccccc1-n1cc(-c2cccc(NC(=O)c3cn4c(c(OC)c3=O)C(=O)N3[C@H](C)CCO[C@H]3C4)c2)nn1 not met
COc1c2n(cc(C(=O)Nc3ccccc3-c3cn(-c4ccc(C(F)(F)F)cc4)nn3)c1=O)C[C@@H]1OCC[C@@H](C)N1C2=O not met
COc1c2n(cc(C(=O)Nc3ccccc3-c3cn(-c4ccccc4F)nn3)c1=O)C[C@@H]1OCC[C@@H](C)N1C2=O not met
COc1c2n(cc(C(=O)Nc3cccc(-c4cn(-c5ccccc5I)nn4)c3)c1=O)C[C@@H]1OCC[C@@H](C)N1C2=O not met

Say whether its viability at 10 µM is strictly beneath 70%. Entry: CCc1ccccc1-n1cc(-c2ccccc2NC(=O)c2cn3c(c(OC)c2=O)C(=O)N2[C@H](C)CCO[C@H]2C3)nn1
not met

Say whether its viability at 10 µM is strictly beneath 70%. Entry: COc1c2n(cc(C(=O)Nc3ccccc3-c3cn(-c4c(C)cc(C)cc4C)nn3)c1=O)C[C@@H]1OCC[C@@H](C)N1C2=O
not met

Say whether its viability at 10 µM is strictly beneath 70%. Entry: COc1c2n(cc(C(=O)Nc3ccc(-c4cn(-c5c(C)cc(C)cc5C)nn4)cc3)c1=O)C[C@@H]1OCC[C@@H](C)N1C2=O
not met

Say whether its viability at 10 µM is strictly beneath 70%. Entry: COc1c2n(cc(C(=O)Nc3ccc(-c4cn(-c5ccc(F)cc5)nn4)cc3)c1=O)C[C@@H]1OCC[C@@H](C)N1C2=O
not met

Say whether its viability at 10 µM is strictly beneath 70%. Entry: COc1c2n(cc(C(=O)Nc3ccc(-c4cn(-c5cccc(C(F)(F)F)c5)nn4)cc3)c1=O)C[C@@H]1OCC[C@@H](C)N1C2=O
not met

Say whether its viability at 10 µM is strictly beneath 70%. Entry: COc1ccccc1-n1cc(-c2cccc(NC(=O)c3cn4c(c(OC)c3=O)C(=O)N3[C@@H](C)CO[C@@H]3C4)c2)nn1
met

Say whether its viability at 10 µM is strictly beneath 70%. Entry: COc1c2n(cc(C(=O)Nc3cccc(-c4cn(-c5c(C)cc(C)cc5C)nn4)c3)c1=O)C[C@H]1OC[C@H](C)N1C2=O
met

---

Test system: BV-2
PROTOCOL DETAILS: Antiinflammatory activity in LPS induced mouse BV-2 cells assessed as NO production at 1 uM by Griess reagent based assay relative to control
ATTRIBUTE MEASURED: level, % of control at 1 µM (%)
Provide the reading as a plain figure in %.

COc1c2n(cc(C(=O)Nc3cccc(-c4cn(-c5ccccc5F)nn4)c3)c1=O)C[C@H]1OC[C@H](C)N1C2=O 97.9
COc1c2n(cc(C(=O)Nc3ccc(-c4cn(-c5ccccc5I)nn4)cc3)c1=O)C[C@@H]1OCC[C@@H](C)N1C2=O 98.2
COc1c2n(cc(C(=O)Nc3ccc(-c4cn(-c5c(C)cc(C)cc5C)nn4)cc3)c1=O)C[C@@H]1OCC[C@@H](C)N1C2=O 98.9

Moving on to another compound below.
Answer with reported level, % of control at 1 µM of COc1ccccc1-n1cc(-c2ccc(NC(=O)c3cn4c(c(OC)c3=O)C(=O)N3[C@H](C)CCO[C@H]3C4)cc2)nn1
108

---

System: BV-2
PROTOCOL DETAILS: Antiinflammatory activity in LPS induced mouse BV-2 cells assessed as NO production at 10 uM by Griess reagent based assay relative to control
Entries annotated with measured level, % of control at 10 µM
Note: state the figure and append the unit.

Worked examples follow.
COc1c2n(cc(C(=O)Nc3cccc(-c4cn(-c5ccccc5F)nn4)c3)c1=O)C[C@@H]1OCC[C@@H](C)N1C2=O 53.7%
COc1c2n(cc(C(=O)Nc3ccc(-c4cn(-c5ccccc5I)nn4)cc3)c1=O)C[C@@H]1OCC[C@@H](C)N1C2=O 106%

Answer with reported level, % of control at 10 µM of COc1c2n(cc(C(=O)Nc3cccc(-c4cn(-c5ccccc5C(F)(F)F)nn4)c3)c1=O)C[C@H]1OC[C@H](C)N1C2=O
82.3%

Answer with reported level, % of control at 10 µM of COc1ccccc1-n1cc(-c2cccc(NC(=O)c3cn4c(c(OC)c3=O)C(=O)N3[C@H](C)CCO[C@H]3C4)c2)nn1
48.6%
